# Tested on: MCF-7/adr
# test: Cytotoxicity test (ViaLight Plus cell proliferation) on MCF-7/adr
# Assay type: cell-based, human
# condition: Homo sapiens, NCI/ADR-RES, 72 h, adriamycin-resistant line, 72 hours' incubation, cell viability vs 0.5% DMSO control; read-out: EC50 MCF-7/adr
param class (str): category from IC50; see ranges lowest (below 90 nM), middle (90 nM to below 200 nM), highest (200 nM or more)

INPUT: For Cc1cc(Oc2ccccc2)ccc1N(C(=O)CCl)C(C(=O)N1CCN(C(=O)OC(C)(C)C)[C@H](C)C1)c1ccc(F)cc1 (stereo partly shown) [Example I-11] , which IC50 bin applies?
OUTPUT: middle

INPUT: Band assignment needed for O=C(C(c1cccs1)N(C(=O)CCl)c1ccc(Oc2ccccc2)cc1)N1CCN2CCC[C@H]2C1 (stereo partly shown) [Example I-34] please.
OUTPUT: middle

INPUT: Into which bin does this compound go? Cc1cc(Oc2ccccc2)ccc1N(C(=O)CCl)C(C(=O)N1CCN[C@@H](C)C1)c1cccs1 (single isomer, unassigned) [I-43 dia2]
OUTPUT: middle

INPUT: Class for C[C@@H]1CN(C(=O)C(c2cccs2)N(C(=O)CCl)c2ccc(Oc3ccccc3)cc2)CCN1C(=O)OCc1ccccc1 (stereo partly shown) [Example I-36] ?
OUTPUT: lowest

INPUT: Exam item: assign Cc1cc(Oc2ccccc2)ccc1N(C(=O)CCl)C(C(=O)N1CCN(C(=O)OC(C)(C)C)[C@@H](C)C1)c1ccc(F)cc1 (stereo partly shown) [Example I-9] to the correct category.
OUTPUT: middle

INPUT: Consider Cc1cc(Oc2ccccc2)ccc1N(C(=O)CCl)C(C(=O)N1C[C@@H](C)N[C@@H](C)C1)c1ccc(F)cc1 (stereo partly shown) [Example I-14] . To which IC50 class does it belong?
OUTPUT: highest

INPUT: The entry to classify is Cc1c(N(C(=O)CCl)C(C(=O)N2C[C@@H](C)N[C@@H](C)C2)c2cccs2)cccc1C(F)(F)F (stereo partly shown) [Example I-38] ; which class holds it?
OUTPUT: highest

INPUT: Exercise: read the entry O=C(C(c1cccs1)N(C(=O)CCl)c1ccc(Oc2ccccc2)cc1)N1CC2CC1CN2 (stereo not shown) [Example I-35] and state which class it falls under.
OUTPUT: highest

INPUT: Textbook exercise: identify the category of the compound given here, Cc1cc(Oc2ccccc2)ccc1N(C(=O)CCl)C(C(=O)N1CCN[C@@H](C)C1)c1ccc(F)cc1 (stereo partly shown) [Example I-12] , according to its measured value.
OUTPUT: highest

INPUT: Kindly identify the class of CC1CN(C(=O)C(c2cccs2)N(C(=O)CCl)c2ccc(Oc3ccccc3)cc2)CC(C)N1 (stereo not shown) [Example I-30] .
OUTPUT: lowest

INPUT: Class label required: CC1CN(C(=O)C(c2cccs2)N(C(=O)CCl)c2ccc(Oc3ccccc3)cc2)CC(C)N1C(=O)OC(C)(C)C (stereo not shown) [Example I-32]
OUTPUT: lowest

INPUT: Classify this compound: Cc1cc(Oc2ccccc2)ccc1N(C(=O)CCl)C(C(=O)N1CCN(C(=O)OCc2ccccc2)[C@H](C)C1)c1cccs1 (stereo partly shown) [Example I-37]
OUTPUT: middle

INPUT: Any idea which band Cc1cc(Oc2ccccc2)ccc1N(C(=O)CCl)C(C(=O)N1CCN[C@H](C)C1)c1ccc(F)cc1 (stereo partly shown) [Example I-13] is in?
OUTPUT: highest

INPUT: Please let me know in which category the item C[C@@H]1CN(C(=O)C(c2cccs2)N(C(=O)CCl)c2ccc(Oc3ccccc3)cc2)CCN1.Cl (stereo partly shown) [Example I-59] belongs.
OUTPUT: middle

INPUT: Please report the category associated with CC[C@H]1CN(C(=O)C(c2cccs2)N(C(=O)CCl)c2ccc(Oc3ccccc3)cc2)CCN1 (stereo partly shown) [Example I-39] , nothing else.
OUTPUT: lowest

INPUT: Into which bin does this compound go? CC1CN(C(=O)C(c2cccs2)N(C(=O)CCl)c2cccc(C(F)(F)F)c2)CC(C)N1C(=O)OCc1ccccc1 (stereo not shown) [Example I-29]
OUTPUT: lowest

INPUT: Form field 'band' for Cc1cc(Oc2ccccc2)ccc1N(C(=O)CCl)C(C(=O)N1C[C@@H](C)N(C(=O)OC(C)(C)C)[C@@H](C)C1)c1ccc(F)cc1 (stereo partly shown) [Example I-10]
OUTPUT: middle

* * *

# Test system: HL-60
# test: Cytotoxicity test (ViaLight Plus cell proliferation) on HL-60
# Assay type: cell-based, human
# condition: 72 hours' incubation, cell viability vs 0.5% DMSO control
# From the text: The effects of the compounds of the invention on the proliferation of cancer cells were studied on different human cancer cell lines of different tissue origin (MCF-7: breast cancer, MCF-7/adr adriamycin-resistant breast cancer, HL-60: acute promyelocytic leukaemia, HL-60/R10: doxorubicin-resistant acute promyelocytic leukaemia, HT29: colon adenocarcinoma, Mia Paca2: pancreatic tumour, Panc-1: pancreatic exocrine tumour, SK-OV-3: cisplatin- and adriamycin resistant ovarian cancer). […]
Classification by EC50 follows these ranges: 1 (below 600 nM), 2 (600 nM to below 1000 nM), 3 (1000 nM or more)

INPUT: Assign a category based on measured EC50 for Cc1cc(OC(C)C)ccc1N(C(=O)CCl)C(C(=O)N1CCN[C@@H](C(C)C)C1)c1ccc(F)cc1 (single isomer, unassigned; dia2) [I-26 dia2] and give only the class name.
OUTPUT: 2

INPUT: Band of CC[C@H]1CN(C(=O)C(c2ccc(F)cc2)N(C(=O)CCl)c2ccc(Oc3ccccc3)cc2)CCN1C(=O)OC(C)(C)C (single isomer, unassigned; dia1) [I-19 dia1] ?
OUTPUT: 1

INPUT: Kindly identify the class of C[C@H]1CN(C(=O)C(c2ccc(F)cc2)N(C(=O)CCl)c2ccc(Oc3ccccc3)cc2)CCN1 (single isomer, unassigned; dia1) [I-21 dia1] .
OUTPUT: 3

INPUT: Just checking, what class would you give Cc1cc(Cl)ccc1N(C(=O)CCl)C(C(=O)N1CCN[C@@H](C(C)C)C1)c1cccs1 (single isomer, unassigned; dia2) here?
OUTPUT: 1

INPUT: Using the reported EC50, which band applies to CC(C)[C@H]1CN(C(=O)C(c2cccs2)N(C(=O)CCl)c2cccc(C(F)(F)F)c2)CCN1 (single isomer, unassigned; dia2) [I-50 dia2] ?
OUTPUT: 2

INPUT: Exercise: read the entry Cc1cc(OC(F)(F)F)ccc1N(C(=O)CCl)C(C(=O)N1CCN[C@@H](C(C)C)C1)c1ccc(F)cc1 (single isomer, unassigned; dia2) [I-27 dia2] and state which class it falls under.
OUTPUT: 3

INPUT: # bin lookup: classify CC(C)[C@H]1CN(C(=O)C(c2cccs2)N(C(=O)CCl)c2cccc(C(F)(F)F)c2)CCN1 (single isomer, unassigned; dia1) [I-50 dia1] by its EC50
OUTPUT: 3

INPUT: Form field 'band' for Cc1cc(CCC(C)(C)C)ccc1N(C(=O)CCl)C(C(=O)N1CCNC(C(C)C)C1)c1ccc(F)cc1 (single isomer, unassigned; dia2) [I-25 dia2]
OUTPUT: 2

INPUT: Pick a category. Item: Cc1cc(CCC(C)(C)C)ccc1N(C(=O)CCl)C(C(=O)N1CCNC(C(C)C)C1)c1ccc(F)cc1 (single isomer, unassigned; dia1) [I-25 dia1]
OUTPUT: 3

INPUT: Record CC(C)[C@H]1CN(C(=O)C(c2ccc(F)cc2)N(C(=O)CCl)c2ccc(Oc3ccccc3)cc2)CCN1 (single isomer, unassigned) [I-3 dia2] — which class?
OUTPUT: 1

INPUT: Which bin, given its EC50, does CC[C@@H]1CN(C(=O)C(c2ccc(F)cc2)N(C(=O)CCl)c2ccc(Oc3ccccc3)cc2)CCN1C(=O)OC(C)(C)C (single isomer, unassigned; dia2) [I-20 dia2] occupy?
OUTPUT: 3

* * *

Consider the following compounds; for each one, report its pEC50.
# Test system: HL-60
# test: Cytotoxicity test (ViaLight Plus cell proliferation) on HL-60
# Assay type: cell-based, human
# condition: Homo sapiens, HL-60; 72 hours' incubation, cell viability vs 0.5% DMSO control
// pEC50: -log10(molar conc.)

INPUT: Item Cc1cc(Oc2ccccc2)ccc1N(C(=O)CCl)C(C(=O)N1CCN[C@H](C)C1)c1ccc(F)cc1 (stereo partly shown) [Example I-13] : provide pEC50
OUTPUT: 5.70

INPUT: Provide only the value of recorded pEC50 for C[C@H]1CN(C(=O)C(c2cccs2)N(C(=O)CCl)c2ccc(Oc3ccccc3)cc2)CCN1.Cl (stereo partly shown) [Example I-58]
OUTPUT: 5.98

INPUT: Read off the recorded pEC50 for Cc1cc(Oc2ccccc2)ccc1N(C(=O)CCl)C(C(=O)N1CCN[C@@H](C)C1)c1ccc(F)cc1 (stereo partly shown) [Example I-12]
OUTPUT: 5.63

INPUT: Annotate the compound Cc1cc(Oc2ccccc2)ccc1N(C(=O)CCl)C(C(=O)N1C[C@@H](C)N[C@@H](C)C1)c1ccc(F)cc1 (stereo partly shown) [Example I-14] with its measured pEC50.
OUTPUT: 5.73
